Where these numbers come from: patent US12391701B2

For each entry below, report its IC50 value.
- Test system: non-neoplastic cell line MCF-10A
- measurement-description: Cell viability assay (MTS), MCF-10A
- Type: cell-based
- assay-setup: Homo sapiens, 72 h incubation
Answers are plain numbers, in µM.

Worked cases, answers included:
# compound, IC50 (µM)
measured = [
    ("COc1cccc2c1Oc1nc(-c3ccc(Br)cc3)[nH]c1C2 [MC408]", 2.99),
    ("COc1cccc2c1Oc1nc(-c3cccc(O)c3)[nH]c1C2 [MC359]", 6.66),
    ("COc1cccc2c1Oc1nc(-c3ccccc3F)[nH]c1C2 [MC407]", 3.93),
]

Batch of 4 compounds: report IC50 for each.
1. COc1cccc2c1Oc1nc(-c3ccc(F)cc3)[nH]c1C2 [MC409]
2. COc1ccc(-c2nc3c([nH]2)Cc2cccc(OC)c2O3)c(Br)c1O [MC416]
3. COc1ccccc1-c1nc2c([nH]1)Cc1cccc(OC)c1O2 [MC411]
4. COc1cccc2c1Oc1nc(-c3cccc(F)c3)[nH]c1C2 [MC349]

Reply |
1. 14.3
2. 1.99
3. 6.82
4. 2.3

Batch lookup, IC50 per entry.
1. COc1cccc2c1Oc1nc(-c3ccc(F)cc3)[nH]c1C2C1c2cccc(OC)c2Oc2nc(-c3ccc(F)cc3)[nH]c21 (stereo not drawn) [MC406]
2. CCOc1ccc(-c2nc3c([nH]2)Cc2cccc(OC)c2O3)cc1 [MC415]
3. COc1cccc2c1Oc1nc(-c3ccccc3)[nH]c1C2 [MC350]

Reply |
12.7
1.9
8.46

Ask | Quick one: IC50 for COc1cccc2c1Oc1nc(-c3ccc(Cl)cc3)[nH]c1C2 [MC412] ?
Reply | 1.74

----------
- System: acute leukemia cell line HL-60
- measurement-description: Cell viability MTS assay, HL-60
- Format: cell-based
- assay-setup: Homo sapiens, 72 hours
Assign IC50 to each entry below.
Answer format: number, then unit.

Would you please look over these solved cases?
# compound, IC50
measured = [
    ("COc1cccc2c1Oc1nc(-c3ccc(Br)cc3)[nH]c1C2C1c2cccc(OC)c2Oc2nc(-c3ccc(Br)cc3)[nH]c21 (stereo not shown)", "0.25 µM"),
    ("COc1cccc2c1Oc1nc(-c3ccc(Br)cc3)[nH]c1C2", "0.57 µM"),
    ("COc1cccc2c1Oc1nc(-c3ccc(F)cc3)[nH]c1C2", "0.65 µM"),
]

Ask | Please give the measured IC50 for this compound: COc1cccc2c1Oc1nc(-c3ccc(F)cc3)[nH]c1C2C1c2cccc(OC)c2Oc2nc(-c3ccc(F)cc3)[nH]c21 (stereo not shown)
Reply | 0.65 µM

----------
- Tested on: renal carcinoma cell line Caki-2
- measurement-description: Cell viability (sulforhodamine B), Caki-2
- Format: cell-based
- assay-setup: Homo sapiens, Table 5
Record form. Attribute: pIC50. Fill in for each entry.
Give bare numbers, as −log10 of the molar value.

The following compounds have reported results that may help.
# compound, pIC50
data = [
    ("COc1cccc2c1Oc1nc(-c3ccc(Br)cc3)[nH]c1C2C1c2cccc(OC)c2Oc2nc(-c3ccc(Br)cc3)[nH]c21 (stereo not shown)", 6.37),
    ("COc1cccc2c1Oc1nc(-c3ccc(F)cc3)[nH]c1C2", 6.44),
    ("COc1cccc2c1Oc1nc(-c3cc(F)cc(F)c3O)[nH]c1C2", 5.07),
    ("COc1cccc2c1Oc1nc(-c3cccc(F)c3)[nH]c1C2", 6.36),
    ("COc1cccc2c1Oc1nc(-c3ccc(Cl)cc3)[nH]c1C2", 7.41),
]

Required: pIC50, one value per compound below.
1. COc1ccc(-c2nc3c([nH]2)Cc2cccc(OC)c2O3)c(Br)c1O
2. COc1cccc2c1Oc1nc(-c3ccc(Br)cc3)[nH]c1C2
3. CCOc1ccc(-c2nc3c([nH]2)Cc2cccc(OC)c2O3)cc1
4. COc1cccc2c1Oc1nc(-c3ccc(O)cc3)[nH]c1C2
5. COc1cccc2c1Oc1nc(-c3ccccc3)[nH]c1C2

Reply |
1: 5.59; 2: 7.05; 3: 7.21; 4: 6.42; 5: 6.40

----------
- System: acute leukemia cell line Jurkat
- measurement-description: Cell viability MTS assay, Jurkat
- Assay type: cell-based
- assay-setup: Homo sapiens, 72 hours
observed-property: IC50 (µM)
Answers are plain numbers, in µM.

Reference set (3 entries):
# compound, observed-property, quantitative-result
measured = [
    ("COc1cccc2c1Oc1nc(-c3ccc(Br)cc3)[nH]c1C2C1c2cccc(OC)c2Oc2nc(-c3ccc(Br)cc3)[nH]c21 (stereo not shown)", "IC50", 0.18),
    ("COc1cccc2c1Oc1nc(-c3ccc(F)cc3)[nH]c1C2", "IC50", 0.37),
    ("COc1cccc2c1Oc1nc(-c3ccc(Br)cc3)[nH]c1C2", "IC50", 0.19),
]

The record that follows has no IC50 shown yet.
Ask | Return reported IC50; argument: COc1cccc2c1Oc1nc(-c3ccc(F)cc3)[nH]c1C2C1c2cccc(OC)c2Oc2nc(-c3ccc(F)cc3)[nH]c21 (stereo not shown)
Reply | 0.12

----------
Would you kindly list IC50 for each of these compounds?
- Tested on: glioma cell line GL18
- measurement-description: Cell viability MTS assay, GL18
- Assay type: cell-based
- assay-setup: Homo sapiens, 72 hours
Put your answer as a value accompanied by its unit after it.

Sample records with IC50:
# compound, IC50
rows = [
    ("COc1cccc2c1Oc1nc(-c3ccc(Br)cc3)[nH]c1C2C1c2cccc(OC)c2Oc2nc(-c3ccc(Br)cc3)[nH]c21 (stereo not shown)", "0.2 µM"),
    ("COc1cccc2c1Oc1nc(-c3ccc(F)cc3)[nH]c1C2C1c2cccc(OC)c2Oc2nc(-c3ccc(F)cc3)[nH]c21 (stereo not shown)", "0.3 µM"),
    ("COc1cccc2c1Oc1nc(-c3ccc(Br)cc3)[nH]c1C2", "1.6 µM"),
]

Attention now shifts to the item below.
Ask | // query IC50 value for entry COc1cccc2c1Oc1nc(-c3ccc(F)cc3)[nH]c1C2
Reply | 0.6 µM

----------
- Test system: MCF-7 cells
- measurement-description: Wound-healing assay, MCF-7 cell migration
- Assay type: cell-based, human
- assay-setup: after 72 hours of treatment; IC50 (and ½IC50) concentration
- Method: In an embodiment, the effect of the four selected compounds (MC408, MC409, MC406 and MC421) was further evaluated on cell migration (FIG. 1). […] In an embodiment, cell migration was assessed by the wound-healing assay that mimics the process of cell migration during wound-healing in vivo. […] The significance of the difference between different groups was determined with Student t-test.
observed-property: cell migration less than the control (%)
Numbers only, in %.

Some entries whose results are on file:
# compound, units-text, cell migration less than the control
rows = [
    ("COc1cccc2c1Oc1nc(-c3ccc(Br)cc3)[nH]c1C2C1c2cccc(OC)c2Oc2nc(-c3ccc(Br)cc3)[nH]c21 (stereo not shown)", "%", 13),
    ("COc1cccc2c1Oc1nc(-c3ccc(F)cc3)[nH]c1C2C1c2cccc(OC)c2Oc2nc(-c3ccc(F)cc3)[nH]c21 (stereo not shown)", "%", 20),
]

Continue with the next compound.
Ask | Form entry - test system: MCF-7 cells; read-out: cell migration less than the control; compound: COc1cccc2c1Oc1nc(-c3ccc(Br)cc3)[nH]c1C2
Reply | 20

----------
Provide the recorded IC50 for the entries that follow.
- Tested on: non-neoplastic cell line MCF-10A
- measurement-description: Cell viability assay (MTS), MCF-10A
- Type: cell-based
- assay-setup: Homo sapiens, 72 h incubation

Would you please look over these solved cases?
# molecule, IC50
rows = [
    ("COc1cccc2c1Oc1nc(-c3cc(F)cc(F)c3O)[nH]c1C2 [MC410]", "> 30 µM"),
    ("COc1cccc2c1Oc1nc(-c3ccc(O)cc3)[nH]c1C2 [MC413]", "> 20 µM"),
    ("COc1cccc(-c2nc3c([nH]2)Cc2cccc(OC)c2O3)c1O [Compound M955]", "> 30 µM"),
    ("COc1cccc2c1Oc1nc(-c3ccccc3F)[nH]c1C2C1c2cccc(OC)c2Oc2nc(-c3ccccc3F)[nH]c21 (stereo not shown) [MC369]", "> 20 µM"),
    ("COc1cccc2c1Oc1nc(-c3ccc(Br)cc3)[nH]c1C2C1c2cccc(OC)c2Oc2nc(-c3ccc(Br)cc3)[nH]c21 (stereo not shown) [MC421]", "> 30 µM"),
]

Please give IC50, item by item, for the list that follows.
1. COc1ccc2c(c1)Cc1[nH]c(-c3cc(OC)ccc3O)nc1O2 [Compound M1220]
2. Oc1ccccc1-c1nc2c([nH]1)Cc1ccccc1O2 [Compound M1159]

Reply |
["> 30 µM", "> 30 µM"]
